The values you see were collected from ChEMBL document CHEMBL1221381.

- Tested on: HCT-116
- Measurement description: Cytotoxicity against human HCT116 cells at 100 ug/ml after 72 hrs by MTT assay
- Assay type: functional
- Condition notes: HCT-116, 72 h, read-out: GI
So I've got a bunch of compounds here, and I need their inhibition of growth at 100 µg/mL values.
Reply with just the number (in %).

inhibition of growth at 100 µg/mL reading for `COc1cc2sc(=S)n(C)c(=O)c2cc1O` : 0

# inhibition of growth at 100 µg/mL of COc1cc(CO[C@@H]2O[C@H](CO[C@@H]3OC[C@](O)(CO)[C@H]3O)[C@@H](O)[C@H](O)[C@H]2O)ccc1O [BRETSCHNEIDEROSIDE C] = 9.3

So, O=Cc1ccc(O[C@@H]2O[C@H](CO[C@@H]3OC[C@](O)(CO)[C@H]3O)[C@@H](O)[C@H](O)[C@H]2O)c(O)c1 [BRETSCHNEIDEROSIDE B] ? Its inhibition of growth at 100 µg/mL was 0

The measured inhibition of growth at 100 µg/mL associated with `COc1ccc2c(=O)n(C)c(=S)sc2c1OC` reads 0

inhibition of growth at 100 µg/mL in this record for COc1cc(C=O)ccc1O[C@@H]1O[C@H](CO[C@@H]2OC[C@](O)(CO)[C@H]2O)[C@@H](O)[C@H](O)[C@H]1O [BRETSCHNEIDEROSIDE A] : 0

Form: compound = `COc1cccc2c1C(=O)c1c(O)c3c(c(O)c1C2=O)C[C@@](O)(C(=O)CO)C[C@@H]3O[C@H]1C[C@H](N)[C@H](O)[C@H](C)O1` ; inhibition of growth at 100 µg/mL = 93.1
